Taken from PubChem BioAssay AID179.

Measured EC50 values are reported for all entries that follow.
Tested on: CEM cells HIV-1 protection, formazan growth assay
Assay: NCI AIDS Antiviral Assay

Consider the worked cases shown below.
The recorded EC50 for entry "COc1cc(CCCOC(=O)/C=C/c2ccc(O)c(O)c2)cc(O)c1O" equals > 200 µM

The recorded EC50 for entry "O=c1[nH]c2nc3ccccc3c(=O)n2nc1Cc1ccccc1" equals > 44.7 µM

The recorded EC50 for entry "CC1=C(C(=O)Nc2ccccc2C)C(c2ccc(N(C)C)cc2)C(C(=O)Nc2ccccc2C)=C(C)N1" equals > 14.5 µM

The recorded EC50 for entry "C=CCCCCCCCCCC(C(=O)O)C(=O)O" equals > 977 µM

In the following, a different molecule is considered.
The recorded EC50 for entry O=C1CSC(c2cccc([N+](=O)[O-])c2)N1c1ccc(-c2ccc(-n3c(-c4ccccc4)nc4ccccc4c3=O)cc2)cc1 (stereo not given) equals > 200 µM
